Listed variants paired with reported yeast fitness
B1: tRNA (parent)
chain: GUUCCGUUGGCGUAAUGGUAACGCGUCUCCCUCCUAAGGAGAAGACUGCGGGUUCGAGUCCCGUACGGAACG

Variants of: B1
procedure_text: yeast fitness relative to wild type (ratio to wild type); higher = fitter; tRNA-Arg(CCU), competitive growth, 37 C, YPD
Variants at the floor of the assay were thinned out.
// response body must contain only the number

Sample records with yeast fitness:
U26C A36C
0.559
U3G A40U A45U
0.585
G41C G68A
0.883

[ask] Entry under review: A15C G67A . Reported yeast fitness?
[reply] 0.698

[ask] How about this variant: G58A C60U
[reply] 0.688
